tested on: K. pneumoniae ATCC 13883 wild type and mutants; assay: MIC, wild type and GSK2251052 resistant mutants; assay type: cell-based; conditions: Klebsiella pneumoniae, ATCC13883, read-out: MICs, mutant K 105
Lab note: anything with MIC below 0.5 µg/mL is marked Condition met; values at 0.5 µg/mL or higher are marked Condition not met.

Study these solved cases before continuing.
* O=C(N[C@H](CO)[C@H](O)c1ccc([N+](=O)[O-])cc1)C(Cl)Cl [Chloramphenicol] | Condition not met
* COc1cc(Cc2cnc(N)nc2N)cc(OC)c1OC [Trimethoprim] | Condition not met
* NC[C@H]1O[C@H](O[C@H]2[C@H](O)[C@@H](O[C@H]3O[C@H](CO)[C@@H](O)[C@H](N)[C@H]3O)[C@H](N)C[C@@H]2N)[C@H](O)[C@@H](O)[C@@H]1O [Kanamycin] | Condition not met

Moving on to the next molecule.
State whether 0.5 µg/mL exceeds MIC recorded for O=C(O)c1cn(C2CC2)c2cc(N3CCNCC3)c(F)cc2c1=O [Ciprofloxacin] .
Condition met

###

tested on: Enterobacter aerogenes (AmpC); test: microbe, parasite or virus in culture; type: cell-based; conditions: Klebsiella aerogenes
Kindly supply the reported MIC90 values for the records listed here.

The examples below pair each entry with its known result.
* C[C@@H](O)[C@H]1C(=O)N2C(C(=O)O)=C(SCCN=CN)C[C@H]12 | 2 mg/L
* C[C@H]1COc2c(N3CCN(C)CC3)c(F)cc3c(=O)c(C(=O)O)cn1c23 | 16 mg/L
* CO/N=C(\C(=O)N[C@@H]1C(=O)N2C(C(=O)[O-])=C(C[N+]3(C)CCCC3)CS[C@H]12)c1csc(N)n1 [Cefepime] | 8 mg/L
* CN(C)c1cc(NC(=O)CNC(C)(C)C)c(O)c2c1C[C@H]1C[C@H]3[C@H](N(C)C)C(O)=C(C(N)=O)C(=O)[C@@]3(O)C(O)=C1C2=O | 2 mg/L

# per-item lookup of MIC90; items listed below
1. CC1(C)S[C@@H]2[C@H](NC(=O)[C@H](N)c3ccccc3)C(=O)N2[C@H]1C(=O)O
2. NC[C@H]1OB(O)c2c(OCCCO)cccc21
3. CC(C)(O/N=C(\C(=O)N[C@@H]1C(=O)N2C(C(=O)[O-])=C(C[n+]3ccccc3)CS[C@H]12)c1csc(N)n1)C(=O)O

["> 64 mg/L", "1 mg/L", "> 16 mg/L"]

###

test system: P. aeruginosa ATCC 27853 wild type and mutants; test: MIC, wild type and GSK2251052 resistant mutants; assay type: cell-based; conditions: Pseudomonas aeruginosa, ATCC27853, read-out: MICs, mutant P106
measurementKind: MIC

The examples below pair each entry with its known result.
• COc1cc(Cc2cnc(N)nc2N)cc(OC)c1OC [Trimethoprim] = > 64 µg/mL
• O=C(N[C@H](CO)[C@H](O)c1ccc([N+](=O)[O-])cc1)C(Cl)Cl [Chloramphenicol] = > 64 µg/mL
• NC[C@H]1O[C@H](O[C@H]2[C@H](O)[C@@H](O[C@H]3O[C@H](CO)[C@@H](O)[C@H](N)[C@H]3O)[C@H](N)C[C@@H]2N)[C@H](N)C[C@@H]1O [Tobramycin] = 0.5 µg/mL
• NC[C@H]1O[C@H](O[C@H]2[C@H](O)[C@@H](O[C@H]3O[C@H](CO)[C@@H](O)[C@H](N)[C@H]3O)[C@H](N)C[C@@H]2N)[C@H](O)[C@@H](O)[C@@H]1O [Kanamycin] = > 64 µg/mL
• CC(C)(O/N=C(\C(=O)N[C@@H]1C(=O)N2C(C(=O)[O-])=C(C[n+]3ccccc3)CS[C@H]12)c1csc(N)n1)C(=O)O [Ceftazidime] = 2 µg/mL

Shift focus to the following entry.
What value of measured MIC is listed for O=C(O)c1cn(C2CC2)c2cc(N3CCNCC3)c(F)cc2c1=O [Ciprofloxacin] ?
1 µg/mL

###

tested on: E. coli ATCC 25922; assay: Spontaneous frequency of resistance; assay type: cell-based; settings: 10 X MIC, 24 h
Kindly supply the reported Frequency of Resistance values for the records listed here.

• CC(C)(O/N=C(\C(=O)N[C@@H]1C(=O)N2C(C(=O)[O-])=C(C[n+]3ccccc3)CS[C@H]12)c1csc(N)n1)C(=O)O = <3 × 10^−9
• C[C@H]1COc2c(N3CCN(C)CC3)c(F)cc3c(=O)c(C(=O)O)cn1c23 = <5 × 10^−9
• O=C(O)c1cn(C2CC2)c2cc(N3CCNCC3)c(F)cc2c1=O = <4 × 10^−9

# per-item lookup of Frequency of Resistance; items listed below
1. NC[C@H]1O[C@H](O[C@H]2[C@H](O)[C@@H](O[C@H]3O[C@H](CO)[C@@H](O)[C@H](N)[C@H]3O)[C@H](N)C[C@@H]2N)[C@H](N)C[C@@H]1O
2. C[C@@H](O)[C@H]1C(=O)N2C(C(=O)O)=C(S[C@@H]3CN[C@H](C(=O)N(C)C)C3)[C@H](C)[C@H]12

["4 × 10^−6", "<4 × 10^−9"]

###

system: Klebsiella spp. (KPC); assay: microbe, parasite or virus in culture; type: cell-based; details: Klebsiella
Kindly supply the reported MIC90 values for the records listed here.
Numbers only, in µg/mL.

* CN(C)c1cc(NC(=O)CNC(C)(C)C)c(O)c2c1C[C@H]1C[C@H]3[C@H](N(C)C)C(O)=C(C(N)=O)C(=O)[C@@]3(O)C(O)=C1C2=O [Tigecycline] | 2

Shift focus to the following entry.
What value of measured MIC90 is listed for C[C@@H](O)[C@H]1C(=O)N2C(C(=O)O)=C(SCCN=CN)C[C@H]12 [Imipenem] ?
64

###

tested on: S. marcescens (AmpC); test: microbe, parasite or virus in culture; type: cell-based; conditions: Serratia marcescens
measurementKind: MIC90 (µg/mL)
Give bare numbers, in µg/mL.

The examples below pair each entry with its known result.
• C[C@@H](O)[C@H]1C(=O)N2C(C(=O)O)=C(SCCN=CN)C[C@H]12 = 2
• CN(C)c1cc(NC(=O)CNC(C)(C)C)c(O)c2c1C[C@H]1C[C@H]3[C@H](N(C)C)C(O)=C(C(N)=O)C(=O)[C@@]3(O)C(O)=C1C2=O = 2
• C[C@H]1COc2c(N3CCN(C)CC3)c(F)cc3c(=O)c(C(=O)O)cn1c23 = 4
• CO/N=C(\C(=O)N[C@@H]1C(=O)N2C(C(=O)[O-])=C(C[N+]3(C)CCCC3)CS[C@H]12)c1csc(N)n1 [Cefepime] = 8

Shift focus to the following entry.
What value of measured MIC90 is listed for `NC[C@H]1OB(O)c2c(OCCCO)cccc21` ?
1

###

Kindly supply the reported MIC values for the records listed here.
tested on: K. pneumoniae ATCC 13883 wild type and mutants; assay: MIC, wild type and GSK2251052 resistant mutants; type: cell-based; settings: Klebsiella pneumoniae, ATCC13883, read-out: MICs, mutant K 110
Answers are plain numbers, in µg/mL.

The examples below pair each entry with its known result.
• CC(C)(O/N=C(\C(=O)N[C@@H]1C(=O)N2C(C(=O)[O-])=C(C[n+]3ccccc3)CS[C@H]12)c1csc(N)n1)C(=O)O = 0.5
• NC[C@H]1O[C@H](O[C@H]2[C@H](O)[C@@H](O[C@H]3O[C@H](CO)[C@@H](O)[C@H](N)[C@H]3O)[C@H](N)C[C@@H]2N)[C@H](O)[C@@H](O)[C@@H]1O = 1
• O=C(O)c1cn(C2CC2)c2cc(N3CCNCC3)c(F)cc2c1=O = 0.03
• NC[C@H]1O[C@H](O[C@H]2[C@H](O)[C@@H](O[C@H]3O[C@H](CO)[C@@H](O)[C@H](N)[C@H]3O)[C@H](N)C[C@@H]2N)[C@H](N)C[C@@H]1O = 0.5
• COc1cc(Cc2cnc(N)nc2N)cc(OC)c1OC = 1

Shift focus to the following entry.
What value of measured MIC is listed for `O=C(N[C@H](CO)[C@H](O)c1ccc([N+](=O)[O-])cc1)C(Cl)Cl` ?
8

###

Kindly supply the reported MIC90 values for the records listed here.
system: Klebsiella spp. (WT); experiment: microbe, parasite or virus in culture; type: cell-based; conditions: Klebsiella spp. (WT), 159 isolates; read-out: MIC90
Answers are plain numbers, in µg/mL.

The examples below pair each entry with its known result.
* C[C@H]1COc2c(N3CCN(C)CC3)c(F)cc3c(=O)c(C(=O)O)cn1c23 | 4
* NC[C@H]1OB(O)c2c(OCCCO)cccc21 | 1

Shift focus to the following entry.
What value of measured MIC90 is listed for `CN(C)c1cc(NC(=O)CNC(C)(C)C)c(O)c2c1C[C@H]1C[C@H]3[C@H](N(C)C)C(O)=C(C(N)=O)C(=O)[C@@]3(O)C(O)=C1C2=O` ?
1
